From: PubChem BioAssay (NCI)

- Test system: HOP-62 NSCLC
- assay.explanation: NCI tumour cell line growth inhibition, 48 h
Reported TGI by item:
Enter your answer as a number in µM; do not include the unit.

As a guide, the following entries are already answered.
| compound | unit.info | TGI |
| --- | --- | --- |
| N#CC(=C1SCS1)[N+](=O)[O-] | µM | 21.1 |
| CCCCN(CC)c1nc(C)nc2c1c(C)c(C)n2-c1c(C)cc(C)cc1C | µM | 32.9 |
| Cc1nn(-c2ccc(F)cc2)c2ncnc(Nc3ccc(NC(=O)Nc4ccc(Cl)c(C(F)(F)F)c4)cc3)c12 | µM | 6.83 |
| CCN(CC)CCOC(c1cc(OC)ccc1OC)c1ccc2n1-c1ccccc1OC2 (stereo not drawn) | µM | 40.2 |
| COc1cc2c(cc1OCCCCCOc1cc3c(cc1OC)C(=O)N1CCC[C@H]1C(=O)N3)N=C[C@@H]1CCCN1C2=O | µM | 26.3 |
| O=c1oc2ccccc2c(O)c1C(c1cc(OCc2ccccc2)cc(OCc2ccccc2)c1)c1c(O)c2ccccc2oc1=O | µM | 37 |

Problem: Request the reported TGI associated with O=C(/C=C/c1ccc(Cl)cc1)c1ccc(Cl)cc1Cl
Solution: 25.1

Problem: If you can, please state the reported TGI value of COc1ccc(-c2cc(-c3cc(Cl)ccc3Cl)nc3[nH]c(-c4cc(F)c(Cl)cc4Cl)cc(=O)c23)cc1 .
Solution: 32.2

Problem: Name the recorded TGI for COc1cc(C(=O)NC2c3ccccc3-c3ccccc32)c(N)cc1OCc1ccccc1 .
Solution: 38.4

Problem: Would you kindly share the measured TGI for C=CC(=O)N[C@H]1C=C(C)c2c(-c3cnc4ccccc4c3)c3c(N)ncnc3n2C1 ?
Solution: 66.7

* * *

- Test system: MDA-N
- assay.explanation: NCI tumour cell line growth inhibition, 48 h
Measured TGI of individual entries

| compound | TGI |
| --- | --- |
| N#Cc1c(N)[nH]c(=S)c(C#N)c1-c1cccc(Cl)c1 | 37.8 µM |
| O=c1[nH]c2nc3ccccc3c(=O)n2/c1=C/c1ccc(O)cc1 | > 100 µM |
| c1cc(-c2cnc(-c3ccc4c(c3)CCCO4)o2)ccn1 | 27.8 µM |
| CO[C@@H](C(=O)OC1C=CC2(CC1)C(=O)N(C)c1ccccc12)c1ccccc1 (some centres undefined) | > 100 µM |
| COc1ncc(C=C(C#N)C#N)c(OC)n1 | 92.6 µM |

Problem: Request the reported TGI associated with Cc1ccc(-c2cc(N)n(-c3nc4c([nH]3)c(=O)n(C)c(=O)n4C)n2)cc1
Solution: > 100 µM

Problem: Fill in: TGI of CCCN=C1CC(C)Nc2ccccc2N1 (centres undefined) is ___
Solution: > 100 µM

Problem: For the compound CCCCc1c(O)nc(Nc2nc3ccccc3[nH]2)[nH]c1=O , what TGI is on record?
Solution: > 100 µM

Problem: What does the record list as TGI for O=C(/C(=C(/Br)I)c1ccccc1)c1ccccc1 ?
Solution: 81.9 µM

Problem: TGI for NC(CO)Cc1cnc[nH]1 (centres undefined) ?
Solution: > 100 µM

Problem: Would you kindly share the measured TGI for CC12CC(c3ccccc3O1)C(C(=O)Nc1ccc(F)cc1)C(=O)N2 (centres undefined) ?
Solution: > 100 µM

Problem: Which measured TGI value corresponds to OCC1CCCC(n2cnc3c(=S)nc[nH]c32)O1 (centres undefined) ?
Solution: > 100 µM

Problem: Data request, read-out TGI, for CCCCN(CC)c1nc(C)nc2c1c(C)c(C)n2-c1c(C)cc(C)cc1C
Solution: 38.6 µM

Problem: Would you kindly share the measured TGI for N#CC1=C(N)OC2=C(CSc3ccccc32)C1c1ccc(Br)cc1 (centres undefined) ?
Solution: 14.4 µM

Problem: Recorded TGI of COc1ccc2c(c1)c1c(n2CCN2CCOCC2)-c2ccccc2CC1 , please.
Solution: > 100 µM

Problem: Field request: TGI | item: Clc1cc(N/N=C(/c2ccccc2)c2ncccn2)ncn1
Solution: > 100 µM

* * *

- System: IGROV1 ovarian
- assay.explanation: NCI tumour cell line growth inhibition, 48 h
measurement.name: TGI

Here is how some compounds turned out for TGI.
| compound | TGI |
| --- | --- |
| N#CCCN(c1ccc(C=Nc2cccc([N+](=O)[O-])c2)cc1)S(=O)(=O)c1ccccc1 | > 100 µM |
| O=C1O[C@@H](c2ccccc2)C[C@@H]1CN1CCOCC1 | > 100 µM |
| COc1cc2ncn(-c3cc(OCc4ccccc4Cl)c(C(N)=O)s3)c2cc1OC | > 25 µM |
| O=[Se]([O-])c1ccccc1.O=[Se]([O-])c1ccccc1.[OH3+].[OH3+].[Pt+2] | > 42 µM |
| c1sc(NC2=NCCO2)c2c1CCCC2 | > 100 µM |
| CC(C)(C)OC(=O)NCCCCC(NC(=O)OCc1ccccc1)C(N)=O (stereo not drawn) | > 100 µM |

Problem: Can you look up TGI on IGROV1 ovarian for O=C(NS(=O)(=O)Nc1ccc(Cl)cc1)OCc1ccc(Cl)cc1Cl ?
Solution: 52.8 µM

Problem: Give recorded TGI with IGROV1 ovarian for the following compound: O=c1cc(-c2cccc(F)c2)[nH]c2cc3c(cc12)OCO3
Solution: > 57 µM

* * *

Let's look at some molecules and their measured TGI.
- Tested on: HOP-62 NSCLC
- assay.explanation: NCI tumour cell line growth inhibition, 48 h
Note: unit µM is implicit; provide only the numeric part.

| smiles.str | unit.info | TGI |
| --- | --- | --- |
| COc1cccc(/C=C/C(=O)c2cc3c(N)c(C(=O)Nc4ccccc4C)sc3nc2C)c1 | µM | 2.57 |
| CN1CCN(Cc2ccc(C(=O)Nc3cncc(C#Cc4cnc(N)c5ccccc45)c3)cc2C(F)(F)F)CC1 | µM | 4.42 |
| CC(=O)[CH-]C(=O)c1ccccc1.CC(=O)[CH-]C(=O)c1ccccc1.CCCCCCCCCCCCCCCCCC(=O)[O-].CCCCCCCCCCCCCCCCCC(=O)[O-].[Ti+4] | µM | 90.9 |

Alright, here's another molecule for you.
Problem: // lookup TGI for C=C1C(=O)O[C@H]2[C@H]1CC/C(CNC(=O)c1c[nH]c3ccc(F)cc13)=C\CC[C@@]1(C)O[C@@H]21
Solution: 19.7

* * *

- System: MOLT-4 leukemia
- assay.explanation: NCI tumour cell line growth inhibition, 48 h
Known GI50 of a selection of compounds

Consider the worked cases shown below.
| compound | GI50 |
| --- | --- |
| O=C(CCN1CCN(c2cnc3ccccc3n2)CC1)c1csc2ccccc12 | 35700 nM |
| CC(=O)OCC1OC(O[C@@H]2C[C@H]3C(C)(C)[C@H](OC(C)=O)CC[C@]3(C)[C@H]3CCC4=C([C@@H](C)C[C@@H](O)[C@H](O)C(C)(C)O)CC[C@@]4(C)[C@@]32C)C(O)C(O)C1O (stereo partly drawn) | 13300 nM |

Consider the record given below.
Problem: Looking for the measured GI50 of N#CC(=C1SCS1)[N+](=O)[O-] , can you help?
Solution: 639 nM

* * *

- Tested on: A549 NSCLC
- assay.explanation: NCI tumour cell line growth inhibition, 48 h
Recorded GI50, one value per entry.

| smiles.str | GI50 |
| --- | --- |
| C[C@@H]1CC[C@@H]2[C@@H]1[C@H](OC(=O)/C=C/c1ccccc1)[C@]1(c3ccccc3)C[C@@H](OC(=O)CO)[C@@]2(C)O1 | 14.8 µM |
| CN1CCN(Cc2ccc(C(=O)Nc3cncc(C#Cc4cnc(N)c5ccccc45)c3)cc2C(F)(F)F)CC1 | 1.94 µM |

Problem: If you can, please state the reported GI50 value of COC1(C(=O)N2Cc3nc(Cl)nc(N[C@H](C)c4cc(N)cc(C(F)(F)F)c4)c3C2)CCOCC1 .
Solution: 21.1 µM

* * *

- System: HT29 colon
- assay.explanation: NCI tumour cell line growth inhibition, 48 h; in the data active means GI50 below about 0.43 µM; inactive means the rest
Just give me one of these, please: true for active, false for inactive

| molecule | cat |
| --- | --- |
| CN1CCN(CC#Cc2cccc(C(=O)c3cnn(-c4ccc(F)cc4)c3N)c2)CC1 | false |
| CC(=O)c1ccc(Nc2cc(-c3ccccc3)nc3c(O)cccc23)cc1 | false |
| COc1ccc(C(=O)Nc2ncc(Cc3ccc(Cl)cc3)s2)cc1 | true |
| CC(=O)OCC1OC(O[C@@H]2C[C@H]3C(C)(C)[C@H](OC(C)=O)CC[C@]3(C)[C@H]3CCC4=C([C@@H](C)C[C@@H](O)[C@H](O)C(C)(C)O)CC[C@@]4(C)[C@@]32C)C(O)C(O)C1O (stereo partly drawn) | false |
| COc1cc(-n2cc(-c3ccc(Cl)c(Cl)c3)nc2SCc2ccccc2)cc(OC)c1OC | false |

Problem: Assay outcome for Fc1cccc(COc2ccc(Nc3ncncc3C#Cc3ccccc3)cc2Cl)c1 : what was it?
Solution: false

Problem: GET /call?item= CCN1CCN(c2nc(NCCCNc3ccnc4cc(Cl)ccc34)c3ccccc3n2)CC1 returns the recorded outcome of this test.
Solution: false

Problem: State the result this test recorded for O=C(Nc1nc2ccccc2s1)OCC(F)(F)F .
Solution: false

Problem: Please indicate how the test categorized C=C1C(O)C2CCC(C)(C)C(=O)C2=C(CC(C)C)C12CC2 (stereo not drawn) .
Solution: false

Problem: Dear all, I need the recorded test outcome for Brc1cccc(-c2cc(-c3ccc4c(c3)OCCO4)[nH]n2)c1 , thank you.
Solution: false

Problem: Test call, this molecule: Cc1ccn2c3c(c(C(=O)O)c2c1)C(=O)c1ccccc1C3=O
Solution: false

Problem: Which outcome was entered for the molecule N#CC(=C1SCS1)[N+](=O)[O-] in this test?
Solution: true
